target: HLA-B*15:01; assay: IEDB peptide-MHC binding, purified MHC/competitive/radioactivity; filed as Kd, often an IC50 or EC50 that approximates it; bounds were set here for any values at or beyond the usual limits of such assays; settings: source organism: Dengue virus 3 Martinique/1243/1999
test-readout: Kd (nM)
API: value field is a number in nM; no unit string.

In: Please supply the value of reported Kd for the item VTRGAVLTY
Out: 30

----------
molecular target: HLA-A*03:01; assay: IEDB peptide-MHC binding, purified MHC/competitive/radioactivity; filed as Kd, often an IC50 or EC50 that approximates it; bounds were set here for any values at or beyond the usual limits of such assays; details: source organism: Vaccinia virus WR
Quick reference for log10 of Kd among some sequences
The common logarithm of Kd in nM is what is listed.

Some solved cases for reference:
| monomer-sequence | measured-on | log10 of Kd |
| --- | --- | --- |
| QLLRLMADK | HLA-A*03:01 | 1.79 |
| ILQLIRHGR | HLA-A*03:01 | 3.16 |
| KVFSFWLLCK | HLA-A*03:01 | 0.80 |
| RSKQKIGDLR | HLA-A*03:01 | 3.58 |
| VMNFIPIIY | HLA-A*03:01 | 1.77 |
| ASTISWMMK | HLA-A*03:01 | 1.50 |
| RASTTENAAY | HLA-A*03:01 | 4.13 |
| YTYDRVDIY | HLA-A*03:01 | 2.87 |

In: Please supply the value of reported log10 of Kd for the item ELYDTSPTKR
Out: 2.88

----------
biological target: HLA-A*31:01; assay: IEDB peptide-MHC binding, purified MHC/competitive/radioactivity; filed as Kd, often an IC50 or EC50 that approximates it; bounds were set here for any values at or beyond the usual limits of such assays; details: source organism: Dengue virus 3 Martinique/1243/1999
test-readout: pKd
When answering, recall that pKd equals minus log10 of the concentration in mol/L, and write that number alone.

Some solved cases for reference:
| monomer-sequence | test-result |
| --- | --- |
| KNKAWMVHR | 8.93 |
| RVPSHLAHR | 9.07 |

As a next step, examine the sequence that follows.
In: Please supply the value of reported pKd for the item RNKKPRLCTR
Out: 7.03

----------
target: HLA-A*29:02; assay: IEDB peptide-MHC binding, purified MHC/direct/fluorescence; filed as Kd, often an IC50 or EC50 that approximates it; bounds were set here for any values at or beyond the usual limits of such assays; details: source organism: Mycobacterium tuberculosis
test-readout: Kd

| monomer-sequence | Kd |
| --- | --- |
| FHSRFVQAL | ≥ 20 µM |

As a next step, examine the sequence that follows.
In: Look up HLA-A*29:02 data: Kd of WMRGRGRAL , then report it.
Out: ≥ 20 µM

----------
target: HLA-B*57:01; experiment: IEDB peptide-MHC binding, purified MHC/competitive/fluorescence; filed as Kd, often an IC50 or EC50 that approximates it; bounds were set here for any values at or beyond the usual limits of such assays; details: source organism: Entamoeba histolytica HM-1:IMSS
test-readout: Kd

In: Please supply the value of reported Kd for the item TLPGCLIIL
Out: ≥ 20 µM

----------
molecular target: HLA-A*69:01; test: IEDB peptide-MHC binding, purified MHC/direct/fluorescence; filed as Kd, often an IC50 or EC50 that approximates it; bounds were set here for any values at or beyond the usual limits of such assays; details: source organism: Influenza A virus (A/duck/Vietnam/15/2003(H5N1))
test-readout: Kd

In: Please supply the value of reported Kd for the item SHEGEGIPL
Out: ≥ 20 µM
